All values here come from the supplement of paper PMC11061612.

# System: KP-N-YN (Neuroblastoma)
# assayProtocol: combination Emax (second highest fraction inhibited in the dose matrix, 72 h); higher = more inhibition; extreme values may be limits of the assay
Would you mind telling me the reported combination Emax of each entry?
Numbers only.

Here's what some known entries look like.
NC1(C(=O)N[C@@H](CCO)c2ccc(Cl)cc2)CCN(c2ncnc3[nH]ccc23)CC1 [Capivasertib] + Cn1cnc2c(F)c(Nc3ccc(Br)cc3Cl)c(C(=O)NOCCO)cc21 [Selumetinib] (first compound max 10 µM, 7x7, partner max 10 µM)    0.391
Cc1cc2ncnn2cc1Nc1ncc2c(n1)n(C1CCOCC1)c(=O)n2C [AZD7648] + C=CCn1c(=O)c2cnc(Nc3ccc(N4CCN(C)CC4)cc3)nc2n1-c1cccc(C(C)(C)O)n1 [AZD1775] (first compound max 10 µM, partner max 1 µM)    0.942
CC(=O)Nc1cccc(-n2c(=O)n(C3CC3)c(=O)c3c(Nc4ccc(I)cc4F)n(C)c(=O)c(C)c32)c1 [Trametinib] + Cc1nc(-c2cn3c(n2)-c2ccc(-c4cnn(C(C)(C)C(N)=O)c4)cc2OCC3)n(C(C)C)n1 [Taselisib] (first compound max 1 µM, 7x7, partner max 10 µM)    0.528

List reported combination Emax for each of these compounds:
1. CS(=O)(=O)CCNCc1ccc(-c2ccc3ncnc(Nc4ccc(OCc5cccc(F)c5)c(Cl)c4)c3c2)o1 [Lapatinib] + C[C@@H](Oc1cc(-c2cnn(C3CCNCC3)c2)cnc1N)c1c(Cl)ccc(F)c1Cl [Crizotinib] (first compound max 10 µM, 7x7, partner max 10 µM)
2. CCc1c2c(nc3ccc(O)cc13)-c1cc3c(c(=O)n1C2)COC(=O)[C@]3(O)CC [SN-38] + O=C(c1cc(Cc2n[nH]c(=O)c3ccccc23)ccc1F)N1CCN(C(=O)C2CC2)CC1 [Olaparib] (first compound max 0.3 µM, 7x7, partner max 10 µM)
3. Cc1cc2ncnn2cc1Nc1ncc2c(n1)n(C1CCOCC1)c(=O)n2C [AZD7648] + COc1cc([C@@H]2c3cc4c(cc3[C@@H](O[C@@H]3O[C@@H]5CO[C@@H](C)O[C@H]5[C@H](O)[C@H]3O)[C@H]3COC(=O)[C@H]23)OCO4)cc(OC)c1O [Etoposide] (first compound max 10 µM, 7x7, partner max 10 µM)
4. C[C@@H](Oc1cc(-c2cnn(C3CCNCC3)c2)cnc1N)c1c(Cl)ccc(F)c1Cl [Crizotinib] + Cn1cnc2c(F)c(Nc3ccc(Br)cc3Cl)c(C(=O)NOCCO)cc21 [Selumetinib] (first compound max 10 µM, 7x7, partner max 10 µM)

Reply |
[0.755, 0.491, 0.677, 0.607]

* * *

Kindly state Bliss excess for each of the entries shown.
# System: CA46 (Burkitt's Lymphoma);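 further: after 72 h of two-drug dosing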
# assayProtocol: Bliss excess, mean over the matrix (fraction); higher = more synergy
Numbers only.

CN(C)CCCOc1ccc(-c2ccc3ncc4c(c3c2)n(C2CCOCC2)c(=O)n4C)cn1 [AZD0156] + O=C(c1cc(Cc2n[nH]c(=O)c3ccccc23)ccc1F)N1CCN(C(=O)C2CC2)CC1 [Olaparib] (first compound max 3 µM, partner max 3 µM)    0.0156
CC(=O)Nc1cccc(-n2c(=O)n(C3CC3)c(=O)c3c(Nc4ccc(I)cc4F)n(C)c(=O)c(C)c32)c1 [Trametinib] + Cc1nc(-c2cn3c(n2)-c2ccc(-c4cnn(C(C)(C)C(N)=O)c4)cc2OCC3)n(C(C)C)n1 [Taselisib] (first compound max 1 µM, 7x7, partner max 10 µM)    0.0404
CN(CCO)CC[C@H](CSc1ccccc1)Nc1ccc(S(=O)(=O)NC(=O)c2ccc(N3CCC([C@@H](O)c4ccccc4-c4ccc(Cl)cc4)CC3)cc2)cc1S(=O)(=O)C(F)(F)F [AZD4320] + C1CN(CCC1(C(=O)N[C@@H](CCO)C2=CC=C(C=C2)Cl)N)C3=NC=NC4=C3C=CN4 [Capivasertib] (first compound max 1 µM, 7x7, partner max 3 µM)    -0.0496
COc1nnc2ccc(N3CCC(c4ccc(OCCN5CCN(C)C(=O)[C@H]5C)cc4)CC3)nn12 [AZD5153] + C[C@@H]1COCCN1C2=NC(=NC(=C2)C3(CC3)[S@](=N)(=O)C)C4=C5C=CNC5=NC=C4 [AZD6738] (first compound max 1 µM, 7x7, partner max 10 µM)    -0.0051

Answer for every listed entry: what is its Bliss excess? The entries follow.
1. NC1(C(=O)N[C@@H](CCO)c2ccc(Cl)cc2)CCN(c2ncnc3[nH]ccc23)CC1 [Capivasertib] + C[C@@H]1COCCN1C2=NC(=NC(=C2)C3(CC3)[S@](=N)(=O)C)C4=C5C=CNC5=NC=C4 [AZD6738] (first compound max 10 µM, 7x7, partner max 10 µM)
2. COc1cccc2c1C(=O)c1c(O)c3c(c(O)c1C2=O)C[C@@](O)(C(=O)CO)C[C@@H]3O[C@H]1C[C@H](N)[C@H](O)[C@H](C)O1 [Doxorubicin] + Cc1cc2ncnn2cc1Nc1ncc2c(n1)n(C1CCOCC1)c(=O)n2C [AZD7648] (first compound max 1 µM, 7x7, partner max 10 µM)
3. CN(CCO)CC[C@H](CSc1ccccc1)Nc1ccc(S(=O)(=O)NC(=O)c2ccc(N3CCC([C@@H](O)c4ccccc4-c4ccc(Cl)cc4)CC3)cc2)cc1S(=O)(=O)C(F)(F)F [AZD4320] + Cc1cc2ncnn2cc1Nc1ncc2c(n1)n(C1CCOCC1)c(=O)n2C [AZD7648] (first compound max 1 µM, 7x7, partner max 10 µM)
4. Cc1cc2ncnn2cc1Nc1ncc2c(n1)n(C1CCOCC1)c(=O)n2C [AZD7648] + C=CCn1c(=O)c2cnc(Nc3ccc(N4CCN(C)CC4)cc3)nc2n1-c1cccc(C(C)(C)O)n1 [AZD1775] (first compound max 10 µM, partner max 1 µM)
5. Cc1c2c(nn1C)CSCc1cc(n(C)n1)CSc1cc(c3ccccc3c1)OCCCc1c(C(=O)O)n(C)c3c-2c(Cl)ccc13 [AZD5991] + Cc1cc2ncnn2cc1Nc1ncc2c(n1)n(C1CCOCC1)c(=O)n2C [AZD7648] (first compound max 1 µM, 7x7, partner max 10 µM)

Reply |
1: 0.0324; 2: 0.0813; 3: -0.0061; 4: -0.0416; 5: 0.0187

Need Bliss excess for each of these compounds.
1. Cc1c2c(nn1C)CSCc1cc(n(C)n1)CSc1cc(c3ccccc3c1)OCCCc1c(C(=O)O)n(C)c3c-2c(Cl)ccc13 [AZD5991] + C1CN(CCC1(C(=O)N[C@@H](CCO)C2=CC=C(C=C2)Cl)N)C3=NC=NC4=C3C=CN4 [Capivasertib] (first compound max 1 µM, 7x7, partner max 3 µM)
2. CC1(C)CCC(CN2CCN(c3ccc(C(=O)NS(=O)(=O)c4ccc(NCC5CCOCC5)c([N+](=O)[O-])c4)c(Oc4cnc5[nH]ccc5c4)c3)CC2)=C(c2ccc(Cl)cc2)C1 [Venetoclax] + Cn1cnc2c(F)c(Nc3ccc(Br)cc3Cl)c(C(=O)NOCCO)cc21 [Selumetinib] (first compound max 1 µM, 7x7, partner max 3 µM)

Reply |
1: 0.0205; 2: -0.068

Return reported Bliss excess values for all items listed beneath this line.
1. CCN(CCO)CCCOc1ccc2c(Nc3cc(CC(=O)Nc4cccc(F)c4)[nH]n3)ncnc2c1 [AZD2811] + O=C(c1cc(Cc2n[nH]c(=O)c3ccccc23)ccc1F)N1CCN(C(=O)C2CC2)CC1 [Olaparib] (first compound max 1 µM, 7x7, partner max 10 µM)
2. C[C@@H]1COCCN1c1cc(C2([S@](C)(=N)=O)CC2)nc(-c2ccnc3[nH]ccc23)n1 [AZD6738] + O=C(c1cc(Cc2n[nH]c(=O)c3ccccc23)ccc1F)N1CCN(C(=O)C2CC2)CC1 [Olaparib] (first compound max 10 µM, 7x7, partner max 10 µM)

Reply |
0.02
0.0138
